System: T-47D cells
Test: Caspase cascade activation (N-(Ac-DEVD)-N'-ethoxycarbonyl-R110 fluorogenic substrate) in T-47D cells
Format: cell-based, Human
Conditions: caspase activity: ratio of net RFU of test compound to control, 48 h incubation
Each item that follows carries a reported T47 Ratio 48 hr.

{"compound": "COc1cc(Nc2cc(C(F)(F)F)nc(-c3cnccn3)n2)cc(OC)c1", "assayed-target": "T-47D cells", "T47 Ratio 48 hr": 17.3}

Now for the compound whose T47 Ratio 48 hr we want.
The observed T47 Ratio 48 hr for COc1cc(C)c(Nc2cc(C(F)(F)F)nc(-c3cnccn3)n2)cc1OC.Cl when tested with T-47D cells stands at 15.7

----------
System: T-47D cells
Assay: Caspase cascade activation (N-(Ac-DEVD)-N'-ethoxycarbonyl-R110 fluorogenic substrate) in T-47D cells
Type: cell-based, Human
Conditions: caspase activity: ratio of net RFU of test compound to control, 48 h incubation
Counter-ions that a name gives are not always drawn.
Each item that follows carries a reported T47 Ratio 48 hr.
Format: numeric value only, no unit, no commentary.

Reported T47 Ratio 48 hr of COc1ccc(Br)c(Nc2cc(C(F)(F)F)nc(-c3cccnc3)n2)c1 : 10.3

Reported T47 Ratio 48 hr of Cc1ccc(C)c(Nc2cc(C(F)(F)F)nc(-c3cccnc3)n2)c1 : 20.9

Reported T47 Ratio 48 hr of COc1cc(Nc2cc(C(F)(F)F)nc(-c3cccnc3)n2)c(OC)cc1Cl [Example 130, hydrochloride] : 11.3

Reported T47 Ratio 48 hr of Cc1cc(Nc2cc(C(F)(F)F)nc(-c3cnccn3)n2)c(C)cc1O.Cl : 13.8

Reported T47 Ratio 48 hr of COc1cc(Nc2cc(C(F)(F)F)nc(-c3cc(Cl)nc(Cl)c3)n2)cc(OC)c1 : 1.1

Reported T47 Ratio 48 hr of COc1ccc(C(F)(F)F)cc1Nc1cc(C(F)(F)F)nc(-c2cccnc2)n1 : 8.7
